B1: DLC1 (parent)
chain: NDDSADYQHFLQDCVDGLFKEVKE

Variants of: B1
protocolSummary: protein stability index of a GFP-peptide fusion (GPS, HEK-293T) (PSI 1-6); higher = more stable;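 note: lentivirally expressed fusions sorted by FACS into six bins by GFP to DsRed ratio, PSI derived from sequencing read proportions per bin multiplied by bin number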
assayConditions: c terminus: a fixed tail appended
measuredParameter: protein stability index
I only need the number, thanks.

Consider the following illustrative entries.
N1I    1.59
H9L    2.21
E21P    3.94
A5W    2.1
D2Q    2.91
N1K    3.44

Report protein stability index for S4P please.
2.34

Report protein stability index for V15F please.
3.85
